Assay: Apparent elimination half life of compound was determined in rabbit at 5 mg/kg intravenously admn.
Assay type: ADME, organism-based, Oryctolagus cuniculus
Design: dose 5 mg/kg, route intravenous
Conditions: in vivo, iv
measured.quantity: half-life

input: Read off the recorded half-life for O=C(NO)C1(S(=O)(=O)c2ccc(Oc3ccc(Cl)cc3)cc2)CCN(Cc2ccccc2)CC1
output: 11.8 h

---

Assay: Area under concentration-time curve of compound was determined in monkey at 5 mg/kg intravenously admn.
Type: ADME, organism-based
Parameters: dose 5 mg/kg, route intravenous
Details: simiiformes, in vivo, iv, read-out: AUC 0
measured.quantity: AUC
Enter the number, and then the unit.

input: Read off the recorded AUC for O=C(NO)C1(S(=O)(=O)c2ccc(Oc3ccc(Cl)cc3)cc2)CCN(Cc2ccccc2)CC1
output: 1510 µg·h/mL

---

Experiment: Apparent elimination half life of compound was determined in rabbit at 25 mg/kg orally
Type: ADME, organism-based, Oryctolagus cuniculus
Set-up: dose 25 mg/kg, route oral
Conditions: in vivo, po
measured.quantity: half-life

input: Read off the recorded half-life for O=C(NO)C1(S(=O)(=O)c2ccc(Oc3ccc(Cl)cc3)cc2)CCN(Cc2ccccc2)CC1
output: 7.14 h

---

Experiment: Maximum plasma concentration of compound was determined in rat at 25 mg/kg orally
Type: ADME, organism-based
Set-up: dose 25 mg/kg, route oral
Settings: po
measured.quantity: Cmax

input: Read off the recorded Cmax for O=C(NO)C1(S(=O)(=O)c2ccc(Oc3ccc(Cl)cc3)cc2)CCN(Cc2ccccc2)CC1
output: 75.2 µg/mL

---

Assay: Apparent elimination half life of compound was determined in monkey at 5 mg/kg intravenously admn.
Assay type: ADME, organism-based
Set-up: dose 5 mg/kg, route intravenous
Conditions: simiiformes, in vivo, iv
measured.quantity: half-life (h)
Lab book: enter the figure in h, no units written.

input: Read off the recorded half-life for O=C(NO)C1(S(=O)(=O)c2ccc(Oc3ccc(Cl)cc3)cc2)CCN(Cc2ccccc2)CC1
output: 20.7

---

Assay: Area under concentration-time curve of compound was determined in rabbit at 5 mg/kg intravenously admn.
Format: ADME, organism-based, Oryctolagus cuniculus
Set-up: dose 5 mg/kg, route intravenous
Settings: in vivo, iv, read-out: AUC 0
measured.quantity: AUC

input: Read off the recorded AUC for O=C(NO)C1(S(=O)(=O)c2ccc(Oc3ccc(Cl)cc3)cc2)CCN(Cc2ccccc2)CC1
output: 640 µg·h/mL

---

Experiment: Area under concentration-time curve of compound was determined in rabbit at 25 mg/kg orally
Assay type: ADME, organism-based, Oryctolagus cuniculus
Set-up: dose 25 mg/kg, route oral
Settings: in vivo, po
measured.quantity: AUC (µg·h/mL)
Lab book: enter the figure in µg·h/mL, no units written.

input: Read off the recorded AUC for O=C(NO)C1(S(=O)(=O)c2ccc(Oc3ccc(Cl)cc3)cc2)CCN(Cc2ccccc2)CC1
output: 363

---

Target: Disintegrin and metalloproteinase domain-containing protein 17 (Homo sapiens)
Sequence (P78536 whole entry, the tested form may be a part): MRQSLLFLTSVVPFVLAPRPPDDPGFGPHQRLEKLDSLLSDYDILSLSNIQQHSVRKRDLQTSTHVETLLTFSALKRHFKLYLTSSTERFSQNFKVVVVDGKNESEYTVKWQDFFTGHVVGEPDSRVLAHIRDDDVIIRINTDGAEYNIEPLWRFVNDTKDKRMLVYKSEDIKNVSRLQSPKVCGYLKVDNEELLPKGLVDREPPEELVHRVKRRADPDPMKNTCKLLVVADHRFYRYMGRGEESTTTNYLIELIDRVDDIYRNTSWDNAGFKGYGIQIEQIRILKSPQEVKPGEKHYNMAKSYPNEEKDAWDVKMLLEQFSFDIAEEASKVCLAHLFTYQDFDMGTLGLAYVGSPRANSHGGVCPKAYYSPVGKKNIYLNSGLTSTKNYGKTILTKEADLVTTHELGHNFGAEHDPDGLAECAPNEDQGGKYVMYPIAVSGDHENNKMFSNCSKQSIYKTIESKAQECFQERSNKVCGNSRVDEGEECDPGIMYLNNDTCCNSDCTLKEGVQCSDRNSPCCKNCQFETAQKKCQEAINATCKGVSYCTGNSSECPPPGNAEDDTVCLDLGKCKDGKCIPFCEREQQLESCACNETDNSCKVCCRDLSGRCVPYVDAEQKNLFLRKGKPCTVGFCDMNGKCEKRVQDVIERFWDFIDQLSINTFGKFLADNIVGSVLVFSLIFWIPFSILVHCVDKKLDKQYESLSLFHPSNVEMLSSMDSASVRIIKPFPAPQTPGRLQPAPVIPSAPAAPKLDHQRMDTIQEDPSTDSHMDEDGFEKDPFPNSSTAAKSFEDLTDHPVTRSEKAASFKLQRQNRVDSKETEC
Test: Inhibition of Tumor necrosis factor alpha converting enzyme (TACE) at 10 uM
measured.quantity: inhibition (%)
Lab book: enter the figure in %, no units written.

input: Read off the recorded inhibition for CCN1CCC(C(=O)NO)(S(=O)(=O)c2ccc(OC)cc2)CC1
output: 25

input: Read off the recorded inhibition for CCCCOc1ccc(S(=O)(=O)C2(C(=O)NO)CCN(Cc3ccc(F)cc3)CC2)cc1
output: 39

input: Read off the recorded inhibition for CCCCOc1ccc(S(=O)(=O)C2(C(=O)NO)CCN(Cc3ccc(Cl)c(Cl)c3)CC2)cc1
output: 57

input: Read off the recorded inhibition for CCCCN1CCC(C(=O)NO)(S(=O)(=O)c2ccc(OC)cc2)CC1
output: 15

input: Read off the recorded inhibition for COc1ccc(S(=O)(=O)C2(C(=O)NO)CCN(Cc3ccc(Br)cc3)CC2)cc1
output: 71

input: Read off the recorded inhibition for COc1ccc(S(=O)(=O)C2(C(=O)NO)CCN(C)CC2)cc1
output: 20

input: Read off the recorded inhibition for COc1ccc(S(=O)(=O)C2(C(=O)NO)CCN(CC=C(C)C)CC2)cc1
output: 49

input: Read off the recorded inhibition for COc1ccc(S(=O)(=O)C2(C(=O)NO)CCN(CCCOc3ccccc3)CC2)cc1
output: 50

input: Read off the recorded inhibition for CCCCOc1ccc(S(=O)(=O)C2(C(=O)NO)CCN(CC)CC2)cc1
output: 51

input: Read off the recorded inhibition for COc1ccc(CCN2CCC(C(=O)NO)(S(=O)(=O)c3ccc(OC)cc3)CC2)cc1
output: 53

input: Read off the recorded inhibition for COc1ccc(S(=O)(=O)C2(C(=O)NO)CCN(C(C)(C)C)CC2)cc1
output: 9

input: Read off the recorded inhibition for COc1ccc(S(=O)(=O)C2(C(=O)NO)CCN(C3CCCCCCC3)CC2)cc1
output: 22

input: Read off the recorded inhibition for COc1ccc(S(=O)(=O)C2(C(=O)NO)CCN(C(C)C)CC2)cc1
output: 18

---

Molecular target: Interstitial collagenase (Homo sapiens)
Sequence (whole entry): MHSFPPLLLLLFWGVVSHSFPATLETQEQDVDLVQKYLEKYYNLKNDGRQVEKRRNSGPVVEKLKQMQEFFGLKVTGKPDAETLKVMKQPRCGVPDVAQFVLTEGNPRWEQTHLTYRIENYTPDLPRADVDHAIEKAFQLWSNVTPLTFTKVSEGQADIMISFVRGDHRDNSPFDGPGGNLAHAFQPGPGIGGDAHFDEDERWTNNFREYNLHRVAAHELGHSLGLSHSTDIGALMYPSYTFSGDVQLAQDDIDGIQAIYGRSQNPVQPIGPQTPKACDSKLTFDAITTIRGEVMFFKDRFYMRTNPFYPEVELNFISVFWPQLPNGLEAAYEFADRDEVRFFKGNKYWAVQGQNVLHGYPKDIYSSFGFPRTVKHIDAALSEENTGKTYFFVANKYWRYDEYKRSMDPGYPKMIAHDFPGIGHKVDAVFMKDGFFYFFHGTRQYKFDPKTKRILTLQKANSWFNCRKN
Assay: Inhibition of Matrix metalloprotease-1 at 10 uM
Hi there, I'd appreciate the recorded inhibition for every entry that follows.
Lab book: enter the figure in %, no units written.

input: Read off the recorded inhibition for O=C(NO)C1(S(=O)(=O)c2ccc(OCc3ccccc3)cc2)CCN(Cc2ccccc2)CC1
output: 48

input: Read off the recorded inhibition for CCCCN1CCC(C(=O)NO)(S(=O)(=O)c2ccc(OC)cc2)CC1
output: 56

input: Read off the recorded inhibition for COc1ccc(S(=O)(=O)C2(C(=O)NO)CCN(C(C)(C)C)CC2)cc1
output: 59

input: Read off the recorded inhibition for CCCCOc1ccc(S(=O)(=O)C2(C(=O)NO)CCN(CCCC)CC2)cc1
output: 50

---

Observed IC50, system UniProt:P45452.
Lab book: enter the figure in nM, no units written.

input: Read off the recorded IC50 for CCCCOc1ccc(S(=O)(=O)C2(C(=O)NO)CCN(Cc3ccccc3)CC2)cc1
output: 1

input: Read off the recorded IC50 for CCCCOc1ccc(S(=O)(=O)C2(C(=O)NO)CCN(Cc3ccc(F)cc3)CC2)cc1
output: 5

input: Read off the recorded IC50 for CCCCOc1ccc(S(=O)(=O)C2(C(=O)NO)CCOCC2)cc1
output: 1.4

input: Read off the recorded IC50 for CCCCOc1ccc(S(=O)(=O)C2(C(=O)NO)CCN(C)CC2)cc1
output: 2

input: Read off the recorded IC50 for CCCCOc1ccc(S(=O)(=O)C2(C(=O)NO)CCN(CC)CC2)cc1
output: 2

input: Read off the recorded IC50 for CCN1CCC(C(=O)NO)(S(=O)(=O)c2ccc(Oc3ccc(Cl)cc3)cc2)CC1
output: 1

input: Read off the recorded IC50 for COc1ccc(S(=O)(=O)C2(C(=O)NO)CCN(Cc3ccc(Cl)c(Cl)c3)CC2)cc1
output: 2

input: Read off the recorded IC50 for CCCCN1CCC(C(=O)NO)(S(=O)(=O)c2ccc(Oc3ccc(Cl)cc3)cc2)CC1
output: 1

input: Read off the recorded IC50 for COc1ccc(CN2CCC(C(=O)NO)(S(=O)(=O)c3ccc(OC)cc3)CC2)cc1
output: 2

input: Read off the recorded IC50 for O=C(NO)C1(S(=O)(=O)c2ccc(Oc3ccc(Cl)cc3)cc2)CCN(Cc2ccccc2)CC1
output: 1

input: Read off the recorded IC50 for COc1ccc(S(=O)(=O)C2(C(=O)NO)CCN(Cc3ccc(-c4ccccc4)cc3)CC2)cc1
output: 3

input: Read off the recorded IC50 for COc1ccc(S(=O)(=O)C2(C(=O)NO)CCN(CCc3ccccc3)CC2)cc1
output: 9

input: Read off the recorded IC50 for CCC(CC)Oc1ccc(S(=O)(=O)C2(C(=O)NO)CCN(Cc3ccccc3)CC2)cc1
output: 5

input: Read off the recorded IC50 for COc1ccc(S(=O)(=O)C2(C(=O)NO)CCN(Cc3ccc(-c4cccs4)cc3)CC2)cc1
output: 3

input: Read off the recorded IC50 for O=C(NO)C1(S(=O)(=O)c2ccc(Oc3ccc(Cl)cc3)cc2)CCNCC1
output: 2

input: Read off the recorded IC50 for COc1ccc(S(=O)(=O)C2(C(=O)NO)CCN(CCCOc3ccccc3)CC2)cc1
output: 4

input: Read off the recorded IC50 for CCCCOc1ccc(S(=O)(=O)C2(C(=O)NO)CCN(Cc3ccc(Cl)c(Cl)c3)CC2)cc1
output: 5

input: Read off the recorded IC50 for CCCCOc1ccc(S(=O)(=O)C2(C(=O)NO)CCN(Cc3ccc(OC)cc3)CC2)cc1
output: 1
